Molecular target: EGFR on EGFR positive non-small cell lung cancer cells NCI-H1650 (UniProt P00533 25-1210)
Experiment: cell-based or functional assay
quantity_kind: H1650 CTG-3D EC50 (µg/mL)
Give bare numbers, in µg/mL.

Take a look at these entries with their results.
{"binder": "AbG-KZ (antibody, human IgG1, kappa, V domains shown, synthon KZ on reduced interchain cysteines; average DAR 2.7 per ADC) VH: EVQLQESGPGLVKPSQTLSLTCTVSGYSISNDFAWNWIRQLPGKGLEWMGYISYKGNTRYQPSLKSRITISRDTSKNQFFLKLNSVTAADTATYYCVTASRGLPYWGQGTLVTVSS VL: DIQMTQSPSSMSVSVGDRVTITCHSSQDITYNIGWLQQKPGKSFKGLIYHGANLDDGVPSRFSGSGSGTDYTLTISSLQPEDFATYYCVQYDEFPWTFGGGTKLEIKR", "u": "µg/mL", "H1650 CTG-3D EC50": 38.3}
{"binder": "AbG-ZT (antibody, human IgG1, kappa, V domains shown, synthon ZT on reduced interchain cysteines; average DAR 1.6 per ADC) VH: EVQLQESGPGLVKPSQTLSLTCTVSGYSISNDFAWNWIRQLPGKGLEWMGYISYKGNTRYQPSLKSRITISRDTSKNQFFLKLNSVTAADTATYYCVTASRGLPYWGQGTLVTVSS VL: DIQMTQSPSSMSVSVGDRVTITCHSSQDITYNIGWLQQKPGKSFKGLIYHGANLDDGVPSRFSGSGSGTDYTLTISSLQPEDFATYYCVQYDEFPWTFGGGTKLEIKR", "u": "µg/mL", "H1650 CTG-3D EC50": 0.1}

From here, focus on the item given below.
The recorded H1650 CTG-3D EC50 for AbB-TX (antibody, human IgG1, kappa, V domains shown, synthon TX on reduced interchain cysteines; average DAR 2.2 per ADC) VH: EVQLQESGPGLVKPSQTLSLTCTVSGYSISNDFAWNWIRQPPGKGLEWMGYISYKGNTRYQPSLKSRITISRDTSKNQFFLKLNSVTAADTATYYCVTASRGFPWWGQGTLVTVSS VL: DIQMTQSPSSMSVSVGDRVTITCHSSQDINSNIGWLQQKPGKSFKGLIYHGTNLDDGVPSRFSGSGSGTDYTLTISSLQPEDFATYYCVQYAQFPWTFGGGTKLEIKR is 2.39

meta.source: patent US20240199745A1
